All figures here come from ChEMBL document CHEMBL1137524.

# Lookup of reported MIC keyed by entry
Test system: Escherichia coli
ASSAY PROTOCOL: Antibacterial activity against aminoglycoside-susceptible Escherichia coli TG1 after 12 to 18 hrs
Type: functional
Reply numerically in µg/mL, unit not repeated.

MOLECULAR STRING	MEASUREMENT KIND	OBSERVED RESULT
C[C@H]1O[C@@H](O[C@@H]2[C@@H](O)[C@H](N)C[C@H](N)[C@H]2O[C@H]2O[C@H](CN)[C@@H](O)[C@H](O)[C@H]2N)[C@H](O)[C@@H](O)[C@@H]1N	MIC	8

Query: Can you share its MIC? I mean this compound: C[C@H]1O[C@@H](O[C@@H]2[C@@H](OCCN)[C@H](NC(=O)[C@@H](O)CCN)C[C@H](N)[C@H]2O[C@H]2O[C@H](CN)[C@@H](O)[C@H](O)[C@H]2N)[C@H](O)[C@@H](O)[C@@H]1N
Result: 8

Query: Next: C[C@H]1O[C@@H](O[C@@H]2[C@@H](OCCO)[C@H](NC(=O)[C@@H](O)CCN)C[C@H](N)[C@H]2O[C@H]2O[C@H](CN)[C@@H](O)[C@H](O)[C@H]2N)[C@H](O)[C@@H](O)[C@@H]1N
Result: 2

Query: Next: CCCO[C@@H]1[C@@H](O[C@@H]2O[C@H](C)[C@@H](N)[C@H](O)[C@H]2O)[C@H](O[C@H]2O[C@H](CN)[C@@H](O)[C@H](O)[C@H]2N)[C@@H](N)C[C@H]1NC(=O)[C@@H](O)CCN
Result: 8

Query: Next: NC[C@@H]1O[C@H](O[C@H]2[C@@H](O)[C@H](O[C@@H]3[C@@H](O)[C@H](N)C[C@H](N)[C@H]3O[C@H]3O[C@H](CN)[C@@H](O)[C@H](O)[C@H]3N)O[C@@H]2CO)[C@H](N)[C@@H](O)[C@@H]1O
Result: 4
